target: human i-20S β5i (Homo sapiens, UniProt P20618+P28062); assay: Inhibition of human immunoproteasome β5i; assay type: biochemical; settings: read-out: Ki μM β5i; Table 2

| MOLECULE | SUBJECT_OF_TEST | Ki / µM |
| --- | --- | --- |
| CCN(CC)C(=O)C[C@H](NC(=O)CCc1ccccc1)C(=O)N[C@@H](Cc1ccc(F)cc1)C(=O)NCc1cccc2ccccc12 [DPLG-2] | human i-20S β5i (Homo sapiens, UniProt P20618+P28062) | 54.7 |

* * *

target: UniProt P9WHT9; details: read-out: Ki^app calculated from koff/kon

| SMILES_REPR | QUANTITY_UNIT | Ki |
| --- | --- | --- |
| CCN(CC)C(=O)C[C@H](NC(=O)CCc1ccccc1)C(=O)N[C@@H](Cc1ccc(F)cc1)C(=O)NCc1cccc2ccccc12 | µM | 0.0263 |

* * *

biological target: Mtb20SOG (Mycobacterium tuberculosis); conditions: read-out: Ki μM Mtb20SOG
Sequence (P9WHT9 58-291): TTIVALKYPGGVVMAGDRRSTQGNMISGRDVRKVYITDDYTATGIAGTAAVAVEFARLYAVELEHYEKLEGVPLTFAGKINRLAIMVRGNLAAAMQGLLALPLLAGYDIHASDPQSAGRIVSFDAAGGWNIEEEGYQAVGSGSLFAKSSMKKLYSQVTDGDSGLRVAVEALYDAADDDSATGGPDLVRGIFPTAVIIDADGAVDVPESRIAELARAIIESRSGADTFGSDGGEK
MEASUREMENT_LABEL: Ki (µM)

| SMILES_REPR | SUBJECT_OF_TEST | MEASUREMENT_LABEL | QUANTITY_UNIT | NUMBER |
| --- | --- | --- | --- | --- |
| CCN(CC)C(=O)C[C@H](NC(=O)CCc1ccccc1)C(=O)N[C@@H](Cc1ccc(F)cc1)C(=O)NCc1cccc2ccccc12 | Mtb20SOG (Mycobacterium tuberculosis) | Ki | µM | 0.015 |
